- targetEntity: OTU domain-containing protein 3 (Homo sapiens) (UniProt Q5T2D3)
- Sequence (Q5T2D3 whole entry, looked up, the tested form may be a part): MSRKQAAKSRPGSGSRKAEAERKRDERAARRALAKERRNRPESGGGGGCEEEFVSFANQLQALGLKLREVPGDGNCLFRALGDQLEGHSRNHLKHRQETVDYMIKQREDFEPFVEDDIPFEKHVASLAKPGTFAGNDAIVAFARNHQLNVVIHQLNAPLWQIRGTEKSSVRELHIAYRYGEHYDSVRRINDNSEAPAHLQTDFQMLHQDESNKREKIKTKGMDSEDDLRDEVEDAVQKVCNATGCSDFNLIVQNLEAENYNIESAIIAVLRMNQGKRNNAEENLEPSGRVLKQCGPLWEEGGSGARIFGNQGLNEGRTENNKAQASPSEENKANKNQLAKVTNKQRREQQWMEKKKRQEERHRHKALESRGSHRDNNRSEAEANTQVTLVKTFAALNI
- measurementDescription: Validation of screening hits, potency titration, in vitro enzymatic, OTU domain-containing protein 3 DUB inhibitors (AID 1645868)
- experimentalParameters: purified OTUD3, ubiquitin-rhodamine cleavage fluorescence, 2 h
Active and inactive are the calls of the source.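 Rule for the calls: active = maximal percent inhibition of the deubiquitinase OTUD3 of at least 30% across the tested doses; inactive = the rest.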
Classes to choose from: active, inactive

Solved cases below.
compound	groupLabel
COc1ccc(NC(=O)c2nnn(-c3ccccc3F)c2C)cc1OC	inactive
CC(C)(C)N=C1Nc2ncccc2NC12CCCN(C(=O)c1ccccc1)C2 (configuration not stated)	inactive
Cn1c(=O)/c(=C/c2ccccc2)[nH]c(=O)/c1=C/c1ccccc1	active

Query block: Lab log entry: CN1C(=O)c2cc(NC(=O)c3ccccc3Cl)ccc2Oc2ccccc21 — outcome as called in the assay?
Result block: inactive

Query block: Per the assay record, what outcome was assigned to O=c1ccc(-c2noc(Cc3c(F)cccc3Cl)n2)c[nH]1 ?
Result block: inactive

Query block: Status in this test for CC(C)=CCC/C(C)=C/C[C@]1(O)C(=O)c2cc(O)cc(O)c2C(=O)[C@@]1(Cl)CC=C(C)C ?
Result block: inactive

Query block: Just curious, what result did Cc1ccc(Cn2nnc(C(=O)NCc3ccco3)c2-n2cccc2)cc1 get here?
Result block: inactive
